test: Viscosity in aqueous solution at 20° C. (Example 82, Tables 1 and 2); assay type: physicochemical; conditions: calculated for 400 mgI/ml
readout.type: Viscosity at 400 mgI/ml (CALCULATED) (mPas)
Give your result in mPas as a bare value.

Known Viscosity at 400 mgI/ml (CALCULATED) results, listed for orientation:
{"compound": "O=C(Nc1c(I)c(CC(O)CO)c(I)c(NC(=O)C(O)CO)c1I)C(O)CO (stereo not drawn) [Example 64]", "Viscosity at 400 mgI/ml (CALCULATED) / mPas": 13.0}
{"compound": "O=C(CO)Nc1c(I)c(CC(O)CO)c(I)c(N(CC(O)CO)C(=O)CO)c1I (stereo not drawn) [Example 74]", "Viscosity at 400 mgI/ml (CALCULATED) / mPas": 15.8}

Pending compound:
Request: Determine its reported Viscosity at 400 mgI/ml (CALCULATED): O=C(CO)N(CCO)c1c(I)c(CC(O)CO)c(I)c(N(CCO)C(=O)CO)c1I (stereo not drawn) [Example 73]
Result: 10.4

###

Overview of recorded Viscosity at 400 mgI/ml (CALCULATED) for various compounds
experiment: Viscosity in aqueous solution at 20° C. (Example 82, Tables 1 and 2); assay type: physicochemical; conditions: calculated for 400 mgI/ml
Give your result in mPas as a bare value.

Known Viscosity at 400 mgI/ml (CALCULATED) results, listed for orientation:
{"compound": "CN(CC(O)CO)C(=O)c1c(I)c(CO)c(I)c(N(CCO)C(=O)CO)c1I (stereo not drawn)", "Viscosity at 400 mgI/ml (CALCULATED) [mPas]": 13.9}
{"compound": "CN(CC(O)CO)C(=O)c1c(I)c(CO)c(I)c(N(CCO)C(=O)C(O)CO)c1I (stereo not drawn)", "Viscosity at 400 mgI/ml (CALCULATED) [mPas]": 16.4}
{"compound": "O=C(c1c(I)c(CO)c(I)c(N(CCO)C(=O)C(O)CO)c1I)N(CCO)CCO (stereo not drawn)", "Viscosity at 400 mgI/ml (CALCULATED) [mPas]": 14.2}
{"compound": "O=C(c1c(I)c(CO)c(I)c(N(CCO)C(=O)CO)c1I)N(CC(O)CO)CC(O)CO (stereo not drawn)", "Viscosity at 400 mgI/ml (CALCULATED) [mPas]": 19.1}
{"compound": "CC(O)C(=O)Nc1c(I)c(CO)c(I)c(C(=O)N(CC(O)CO)CC(O)CO)c1I (stereo not drawn)", "Viscosity at 400 mgI/ml (CALCULATED) [mPas]": 17.0}

Request: Determine its reported Viscosity at 400 mgI/ml (CALCULATED): O=C(NC(CO)C(O)CO)c1c(I)c(CO)c(I)c(N(CC(O)CO)C(=O)CO)c1I (stereo not drawn)
Result: 17.7

Request: Determine its reported Viscosity at 400 mgI/ml (CALCULATED): O=C(Nc1c(I)c(CO)c(I)c(N(CCO)C(=O)C(O)CO)c1I)C(O)CO (stereo not drawn)
Result: 12.2

Request: Determine its reported Viscosity at 400 mgI/ml (CALCULATED): O=C(C(O)CO)N(CCO)c1c(I)c(CCO)c(I)c(N(CCO)C(=O)C(O)CO)c1I (stereo not drawn)
Result: 14.3
